meta.source: PubChem BioAssay (NCI)

Tested on: UO-31 renal
Assay: NCI tumour cell line growth inhibition, 48 h
Property: TGI

Below, each entry is followed by its recorded TGI result.
COC(=O)c1ncc2c(=O)[nH]c3ccccc3c2c1C(=O)OC : > 100 µM
CC1(C)N=C(N)N=C(N)N1c1ccc(OCCCNC(=O)Nc2cccc(S(=O)(=O)F)c2)c(Cl)c1 : > 100 µM
CN(C)CC(=O)Nc1ccc2ncnc(Nc3ccc(Oc4cccc(C(F)(F)F)c4)c(Cl)c3)c2c1 : 2.32 µM
CC(C)(C)C1CCC2c3c([nH]c4ccccc34)C3C(=O)N(c4ccccc4[N+](=O)[O-])C(=O)C3C2C1 (stereo not drawn) : > 100 µM
CC(=O)Nc1ccc(C(=O)NN2C(=O)CSC2c2ccc(O)cc2)cc1 (stereo not drawn) : > 100 µM
CC(=O)NC(Cc1ccccc1)NC(=O)O (stereo not drawn) : > 100 µM

Notebook: CCCCCCCCCCCCCC1=C(O)C(=O)C(CC2=C(O)C(=O)C(CCCCCCCCCCCCC)=C(O)C2=O)=C(O)C1=O , TGI read as > 100 µM

get_value(item= COc1cc(/C=N/c2nc3cc4sc(/N=C/c5cc(OC)c(OC)c(OC)c5)nc4cc3s2)cc(OC)c1OC , readout=TGI) returns > 100 µM

The value of TGI measured for the molecule CCOC(=O)Cc1nnc2n(-c3ccccc3)c(=O)c3ccccc3n12 turned out to be > 100 µM

# TGI (molecule: CC1(C)N=C(N)N=C(N)N1c1ccc(Cl)cc1 ) is > 100 µM

Briefly, TGI measured for O=C1C2CCCCC2C(=O)N1n1c(-c2ccccc2)n[nH]c1=O (stereo not drawn) : > 100 µM
